experiment_description: Solubility in toluene, precipitate check by tyndall effect
Type: physicochemical
condition_details: toluene 100 ml, left 30 minutes at room temperature (25° C.), dissolved amount measured
test_readout: Solubility (wt %)
Give bare numbers, in wt %.

Problem: Returns the measured Solubility for the input compound. Input: "c1ccc([Si](c2ccccc2)(c2ccccc2)c2cccc(-c3ccccc3N(c3cccc([Si](c4ccccc4)(c4ccccc4)c4ccccc4)c3)c3cc4c5ccccc5c(N(c5cccc([Si](c6ccccc6)(c6ccccc6)c6ccccc6)c5)c5ccccc5-c5cccc([Si](c6ccccc6)(c6ccccc6)c6ccccc6)c5)cc4c4ccccc34)c2)cc1"
Result: 10
